Where do the numbers come from? From the supplement of paper PMC8960247.

Tested on: 621-103 (TSC2-rescued);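 further: immortalized renal angiomyolipoma cells stably carrying empty vector or TSC2, dosed in 384-well plates in DMEM, viability normalized to vehicle-treated wells within each plate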
Test: relative viability vs DMSO; higher = less cytotoxic
Settings: 1 µM; serum: 10% FBS; 72 h
Counter-ions that a name gives are not always drawn.
endpoint: relative viability (%)
Give the value in % but do not write % after it.

In: Identify measured relative viability corresponding to CN1[C@@H]2CC[C@H]1C[C@@H](OC(=O)C(CO)c1ccccc1)C2 (stereo not given in full) [Atropine sulfate monohydrate]
Out: 89.9

In: Identify measured relative viability corresponding to CO/N=C(\C(=O)N[C@@H]1C(=O)N2C(C(=O)O)=C(CSC(=O)c3ccco3)CS[C@H]12)c1csc(N)n1 [Ceftiofur HCl]
Out: 94.3

In: Identify measured relative viability corresponding to CCC[C@H](N[C@@H](C)C(=O)N1[C@H](C(=O)O)C[C@@H]2CCCC[C@@H]21)C(=O)OCC [Perindopril Erbumine]
Out: 98.7

In: Identify measured relative viability corresponding to C[C@]12CC[C@H](O)CC1=CC[C@@H]1[C@@H]2CC[C@]2(C)C(=O)CC[C@@H]12 [DHEA]
Out: 79

More entries:
In: Identify measured relative viability corresponding to COc1ccc(-n2nc(C(N)=O)c3c2C(=O)N(c2ccc(N4CCCCC4=O)cc2)CC3)cc1 [Apixaban]
Out: 104

In: Identify measured relative viability corresponding to CC(C)c1cc(C(C)C)c(CC(=O)NS(=O)(=O)Oc2c(C(C)C)cccc2C(C)C)c(C(C)C)c1 [Avasimibe (CI-1011)]
Out: 97.9

In: Identify measured relative viability corresponding to Oc1ccc([C@@H]2Oc3ccc(O)cc3[C@@H]3CCC[C@@H]32)cc1
Out: 103

In: Identify measured relative viability corresponding to NC1=N[C@@]2(c3cc(NC(=O)c4ccc(F)cn4)ccc3F)COC[C@H]2CS1
Out: 99.2

In: Identify measured relative viability corresponding to Oc1c2ccccc2c2c3c(cccc13)N=N2
Out: 98.2

In: Identify measured relative viability corresponding to CCN(CC)CCNC(=O)c1c(C)[nH]c(/C=C2\C(=O)Nc3ccc(F)cc32)c1C [Sunitinib Malate]
Out: 103
